Origin of the recorded values: patent US7119049B2

# experimentDescription: logP determination by HPLC (reversed-phase C 18), acidic range
# Format: physicochemical
# studyConditions: pH 2.3; HPLC reversed-phase C 18, 43° C., 0.1% aqueous phosphoric acid/acetonitrile
chromatographic logP listing for selected molecules.
A bare number is all that is needed in reply.

# smilesRepr, chromatographic logP
measured = [
    ("CC1=C(C(=O)Nc2ccccc2-c2ccc(F)c(Cl)c2)SCCO1", 3.7),
]

What value of chromatographic logP has been reported for the following molecule? "CC1=C(C(=O)Nc2ccccc2-c2ccc(Cl)c(C(F)(F)F)c2)SCCO1"
4.03

What value of chromatographic logP has been reported for the following molecule? "CC1=C(C(=O)Nc2ccccc2-c2ccc(Cl)c(C)c2)SCCO1"
4.17

What value of chromatographic logP has been reported for the following molecule? "CC1=C(C(=O)Nc2ccccc2-c2ccc(Cl)cc2C)SCCO1"
4.26

What value of chromatographic logP has been reported for the following molecule? "CC1=C(C(=O)Nc2ccccc2-c2ccc(Cl)c(F)c2)SCCO1"
3.67

What value of chromatographic logP has been reported for the following molecule? "CC1=C(C(=O)Nc2ccccc2-c2ccc(Cl)cc2)SCCO1"
3.69

What value of chromatographic logP has been reported for the following molecule? "CC1=C(C(=O)Nc2ccccc2-c2ccc(F)c(F)c2)SCCO1"
3.38

What value of chromatographic logP has been reported for the following molecule? "CC1=C(C(=O)Nc2ccccc2-c2ccc(C#N)cc2)SCCO1"
2.74

What value of chromatographic logP has been reported for the following molecule? "CC1=C(C(=O)Nc2ccccc2-c2ccc(Cl)c(Cl)c2)SCCO1"
4.02

What value of chromatographic logP has been reported for the following molecule? "CC1=C(C(=O)Nc2c(F)cccc2-c2ccc(Cl)c(Cl)c2)SCCO1"
3.53

* * *

# experimentDescription: logP determination by HPLC (reversed-phase C 18), acidic range
# Type: physicochemical
# studyConditions: reversed-phase C18 HPLC column; pH 2.3; HPLC reversed-phase C 18, 43° C., 0.1% aqueous phosphoric acid/acetonitrile
outcomeMeasure: chromatographic logP

What value of chromatographic logP has been reported for the following molecule? "CC1=C(C(=O)Nc2ccccc2-c2ccc(Cl)cc2F)SCCO1"
3.61
